- Test system: HCT-15 colon
- protocol.text: NCI-60 one-dose screen, 48 h
- reported.conditions: 10 µM unless noted
The panel holds about 83,000 compounds, 20% with a hit somewhere; the sample as a whole holds those more often. Active and inactive are the calls of the source. Rule for the calls: active = growth percent below 10; inactive = the rest.
// one of active, inactive, no free text

I'd appreciate the recorded outcome for `COc1ccc2nc(C)cc(Sc3nc4ccccc4s3)c2c1` from this test.
inactive

Recorded test outcome, item `Cc1c2c(cc3c1[nH]c1ccccc13)C=NCC2`
inactive

What classification did `CCN(CC)CCNC(=O)n1cc(-c2ccncc2)c(-c2cc(Cl)cc(OC)c2)n1` end up with in this test?
inactive

Hi, do you know how COc1ccc2c(c1)N(Cc1ccc(Cl)cc1)CCC2N1CCCC1=O (stereo unspecified) came out in this test?
inactive

Name the outcome recorded for COc1cc(NCCC2CCCCN2)c2ncccc2c1OC (stereo unspecified) in the assay.
inactive

# lookup: test call for CCCCSc1ncnc2c1ncn2C1CCCCO1 (stereo unspecified)
inactive

What did this assay record as the result for `CCN(CC)CC(=O)Nc1c(C)cc(C(=O)NN)cc1C` ?
inactive

What did this assay record as the result for COc1cc(C)c(Cl)cc1C1=NN(c2ccc(S(N)(=O)=O)cc2)C(/C=C/c2ccccc2)C1 (stereo unspecified) ?
inactive

Query: recorded result category for ClC1=NC(Cl)C(Cl)=N/C1=N\c1ncn[nH]1 (stereo unspecified) in this test
active

Returns: the outcome recorded for `COc1ccc(-c2nn(C(=O)NCCN(C)C)cc2-c2ccncc2)cc1Cl` in this assay.
inactive

Entry `NS(=O)(=O)c1ccc(CCn2c(SCC(=O)N/N=C/c3cccnc3)nc3ccccc3c2=O)cc1` : call = ?
inactive

Hi team, can someone confirm the assay call for C=C1C[C@@]2(C)C(CC[C@]3(C)C2CC=C2C4CC(C)(C)C[C@@H](OC(=O)/C(C)=C\C)[C@]4(C(=O)O)CC[C@]23C)C(C)(C)C1=O (stereo partly specified) ?
active

Recorded test outcome, item `CS(=O)(=O)c1ccc(C(=O)N/N=C/c2ccc3c(c2)OCO3)cc1`
inactive

Which outcome did this test record for the compound `CCOC(=O)c1ccc2c(c1)[n+](=O)c(C(=O)c1ccc3ccccc3c1)c(C(F)(F)F)n2[O-]` ?
active

Record request — test call for `COc1ccc(-c2conc2-n2nc(-c3ccccc3)nc2-c2ccccc2)cc1`
inactive

For this compound, state the assay outcome: `c1ccc(-c2nnn(-c3ccccc3)n2)cc1`
inactive

How was `CCC(=O)NC1=C(Cl)C(=O)C(NC(=O)CC)=C(Cl)C1=O` classified in this test?
inactive

What outcome does the record of this test show for `CCN(CC)c1ccc(/C=N/NC(=O)C[N+](C)(C)C)cc1` ?
inactive

What outcome does the record of this test show for COc1cc(C2CC(=O)Nc3c2cnn3C)cc(OC)c1OC (stereo unspecified) ?
inactive

Fill in: this test's call for `COc1ccc(/C=N/NC(N)=S)c(OC)n1` is ___
inactive

Hi, sorry to bother you, what did the test record for NC(=S)N1N=C(c2ccc(Cl)cc2)CC1c1cc2ccccc2[nH]c1=O (stereo unspecified) ?
inactive

Please share the test call associated with `CCCCCCCOc1cccc(/C=C2\N=C3SCCCN3C2=O)c1` .
inactive

In this assay, the call recorded for COC(=O)C(Br)(C(=O)OC)C(Br)C(Br)C(Br)c1ccccc1 (stereo unspecified) was what?
active

Hi, sorry to bother you, what did the test record for `Cc1ccsc1C(=O)CC(=O)C(F)(F)C(F)(F)C(F)(F)F` ?
inactive

Identify the outcome logged in this assay for the compound shown: `COc1ccc(-c2nc3c(c(-c4ccc(Cl)cc4)nn3-c3ccccc3)c(-c3ccc(O)cc3)c2C#N)cc1`
inactive

Query: recorded result category for `CC(=O)c1ccc(Br)c([N+](=O)[O-])c1` in this test
inactive

Please indicate how the test categorized O=C1OCC2=C1C(c1ccccc1)c1cc3c(cc1N2CCO)OCO3 (stereo unspecified) .
inactive

Given `O/N=C1\c2ccccc2-c2ccc(Br)cc21` , state the outcome it received in this test.
inactive

Entry `COc1cccc(-c2nc3sccn3c2-c2ccnc(NCCN3CCCNS3(=O)=O)n2)c1` : call = ?
inactive

Short answer needed: outcome of this test for CC1=CCC2C1CC=C(C)C(CC[C@H]1[C@@](C)(O)CCC3OC(C)(C)[C@H](OC(=O)c4ccccc4)CC[C@@]31C)C2(C)C (stereo partly specified) ?
inactive

For `Cc1cc([N+](=O)[O-])c(C)cc1N` , which call appears in the assay record?
inactive

Hi, do you know how `COc1cccc(/C=N\Nc2ccc([N+](=O)[O-])cn2)c1O` came out in this test?
inactive

Recorded call for CCCCCCCCOC(=O)C(C)OC(=O)OCCOCCOC(=O)OC(C)C(=O)OCCCCCCCC (stereo unspecified) ?
inactive

I'd appreciate the recorded outcome for `COc1cc2c(=O)n(CCCN(C)C)c3c4cc[nH]c4ncc3c2cc1OC` from this test.
inactive

Which outcome was entered for the compound `CCOC(=O)Cc1cc(Br)c(OCc2ccccc2)c(Br)c1` in this test?
inactive

How did this test come out for CO[C@H](C(=O)[C@@H](O)[C@@H](C)O)[C@@H]1Cc2cc3cc(O[C@H]4C[C@@H](O[C@H]5C[C@@H](O)[C@H](O)C(C)O5)[C@H](O)C(C)O4)c(C)c(O)c3c(O)c2C(=O)[C@H]1O[C@H]1C[C@@H](O[C@H]2C[C@@H](O[C@H]3C[C@](C)(O)C(=O)C(C)O3)[C@@H](O)C(C)O2)[C@H](O)C(C)O1 (stereo partly specified) ?
inactive

Check the results log: what was the call for `O=[N+]([O-])c1ccc(SSc2ccc([N+](=O)[O-])cc2Cl)c(Cl)c1` ?
inactive

// return assay outcome for `S=C(Cc1ccccc1)N1CCN(c2ccccc2Cl)CC1`
inactive

How was `N#Cc1ccc(-c2ccc(-c3cccs3)o2)cc1F` classified in this test?
inactive

Lab log entry: `Nc1nc(NC2CC2)cc(-c2cccc(Cl)c2Cl)n1` — outcome as called in the assay?
inactive

Recorded test call requested for `O=[N+]([O-])c1ccc(Sc2nc(Cl)nc(NC3CCCC3)n2)cc1`
active
